Below, each entry is listed with its recorded GI50.
System: HCT-15 colon
METHOD: NCI tumour cell line growth inhibition, 48 h
MEASUREMENT NAME: GI50

C=C1CCC2C3(C)COC(c4c(OC)cccc4OC)OC3CCC2(C)C1C/C=C1/C(=O)OCC1O (stereo not given); 2.28 µM
CCCCCCCCCCCCCCCC(=O)N[C@H](/C=C/[C@H](O)CCCCCCCCCCCCC)CO; > 100 µM
COc1ccc(-c2nc(Nc3ccc(-c4nc5ccccc5[nH]4)cc3)nc(N3CCOCC3)n2)cc1; 1.67 µM
Clc1cc2c(nn1)Nc1ccccc1S2; > 100 µM
CCN(CC)CCOc1ccc(/C=C2\C[C@H]3[C@H]4CC=C5C[C@@H](O)CC[C@]5(C)[C@H]4CC[C@]3(C)[C@H]2O)cc1OC; 9.19 µM

* * *

System: SF-539 CNS
METHOD: NCI tumour cell line growth inhibition, 48 h
Below, each entry is listed with its recorded GI50.
MEASUREMENT NAME: GI50

CC1=C(C(=O)Nc2ccc3[nH]ncc3c2)C(c2ccc(Cl)c(Cl)c2)CC(=O)N1 (stereo unspecified); > 16800 nM
CNc1cc2nc3cc(NC)c(C)cc3cc2cc1C; 2060 nM
COc1ccc(-c2nn(-c3cccc(NC(=O)Nc4ccccc4)c3)cc2-c2ccncc2)cc1Cl; 1800 nM
CCN(CC)CCOc1ccc(/C=C2\C[C@H]3[C@H]4CC=C5C[C@@H](O)CC[C@]5(C)[C@H]4CC[C@]3(C)[C@H]2O)cc1OC; 1430 nM
C[N+](C)(CCCCCC[N+](C)(C)CCCN1C(=O)c2cc3ccccc3cc2C1=O)CCCN1C(=O)c2cc3ccccc3cc2C1=O; > 37500 nM
O=C1C(=O)c2ccccc2C(O)=C1CCCc1ccc(C2CCCC2)cc1; 5570 nM
CCCCCCCCCCC/C=C\C[C@H](O)C/C=C1/C(=O)C=C[C@@H]1C/C=C\CCCC(=O)OC; 1020 nM
O=C(c1ccco1)c1c(C(F)(F)F)nc2ccc(C(F)(F)F)cc2[n+]1[O-]; 18300 nM
CCCCCCCCCCCCCCCC(=O)N[C@H](/C=C/[C@H](O)CCCCCCCCCCCCC)CO; > 100000 nM
CO[C@]12C=C/C(=C(/C(=O)OCc3cccnc3)C(=O)CCCCCCCC[C@@]3(OC)C=C/C(=C(/C(=O)OCc4cccnc4)C(=O)CCCCCCCC1)O3)O2; 1640 nM
C1COCCOCCOCCOCCOCCO1.[Cl][Sn]([Cl])([c]1ccccc1)[c]1ccccc1; 2940 nM

* * *

System: HCT-15 colon
METHOD: NCI tumour cell line growth inhibition, 48 h
Below, each entry is listed with its recorded GI50.
MEASUREMENT NAME: GI50

O=C1C(Nc2ccc(Br)cc2)=C(I)C(=O)c2ncccc21; 0.588 µM
O=C1C(=O)c2ccccc2C(O)=C1CCCc1ccc(C2CCCC2)cc1; 4.25 µM
CCOC(=O)c1ccc2c(c1)nc(/C=C/c1ccc(Cl)cc1)n2-c1cc(C(C)(C)C)[nH]n1; 4.26 µM
CC1=C(C(=O)Nc2ccc3[nH]ncc3c2)C(c2ccc(Cl)c(Cl)c2)CC(=O)N1 (stereo not given); > 25 µM
O=[N+]([O-])c1ccc(Sc2nc(Cl)nc(NC3CCCC3)n2)cc1; > 10 µM
CCCCCc1cc[n+](CC(=O)c2ccc([N+](=O)[O-])cc2)cc1; 13.6 µM
Nc1ccccc1NC(=O)c1ccc(CN2CCC/C(=C\c3ccccn3)C2=O)cc1; 1.11 µM
COc1cc2nc(-c3ccc(Cl)cc3)cc(OCCCN3CCCC3)c2cc1OC; 0.567 µM
Cc1cccc2nc3cccc(C(=O)NCCNCCNCCNC(=O)c4cccc5nc6cccc(C)c6nc45)c3nc12; 0.0268 µM
CNc1cc2nc3cc(NC)c(C)cc3cc2cc1C; 3.7 µM

Ref: PubChem BioAssay (NCI)
